The reader will find reported parasite growth remaining, % of DMSO control (lower = more inhibition) values listed item by item below.
- method_description: qHTS profiling of the MIPE4 collection as inhibitors of Plasmodium falciparum (DD2) proliferation (AID 743345)
- setup_conditions: P. falciparum Dd2 in erythrocytes, SYBR Green DNA, 72 h; at 28.5 µM (top of the series) unless noted
measured_quantity: parasite growth remaining, % of DMSO control (lower = more inhibition) (%)

> print(dat)
                                    compound  result
 1  COc1ccc(C2CNC(=O)C2)cc1OC1CCCC1 (configuration not stated)     101
 2  CCN1CCCC1CNC(=O)c1cc(S(=O)(=O)CC)c(N)cc1OC (configuration not stated)    99.9
 3                   O=c1[nH]cc(F)c(=O)[nH]1    18.8
 4                Cn1c(=O)c2[nH]cnc2n(C)c1=O     102
 5               CN(C)c1nc(N(C)C)nc(N(C)C)n1     102
 6               NC(=O)OCC(COC(N)=O)c1ccccc1    97.8
 7       Nc1ccn([C@H]2CC[C@@H](CO)O2)c(=O)n1     115
 8                             NCCS(=O)(=O)O     102
 9  CN(Cc1cnc2nc(N)nc(N)c2n1)c1ccc(C(=O)N[C@@H](CCC(=O)O)C(=O)O)cc1     7.1
10  O=C1Cc2cc(CCN3CCN(c4nsc5ccccc45)CC3)c(Cl)cc2N1    21.2
11  CCCCc1oc2ccccc2c1C(=O)c1cc(I)c(OCCN(CC)CC)c(I)c1    6.54
12         CN(C)CCCN1c2ccccc2CCc2ccc(Cl)cc21      12
13    CN1CCN(CCCN2c3ccccc3Sc3ccc(Cl)cc32)CC1      13
14        CN1CCC(=C2c3ccccc3C=Cc3ccccc32)CC1      36
15             Nc1nnc(-c2cccc(Cl)c2Cl)c(N)n1      98
16                Cn1cnc2c1c(=O)[nH]c(=O)n2C       7
17  OCCN1CCN(CCCN2c3ccccc3Sc3ccc(C(F)(F)F)cc32)CC1    10.5
18  COc1ccc2c(c1)c(CC(=O)O)c(C)n2C(=O)c1ccc(Cl)cc1     103
19    COC(=O)Nc1nc2ccc(C(=O)c3cccs3)cc2[nH]1    93.5
20  NC(CO)C(=O)NNCc1ccc(O)c(O)c1O (configuration not stated)     125
21  CC1(CN2CCC(n3c(=O)[nH]c4ccccc43)CC2)OCc2ccccc2-n2cccc21 (configuration not stated)    9.37
22  CN1CCN2c3ccccc3Cc3ccccc3C2C1 (configuration not stated)    60.5
23  Fc1ccc([C@@H]2CCNC[C@H]2COc2ccc3c(c2)OCO3)cc1    39.5
24  C[C@@H]1CC(=O)NN=C1c1ccc(NN=C(C#N)C#N)cc1     6.4
25                         CN(C)C(=N)N=C(N)N    99.4
26                     NC12CC3CC(CC(C3)C1)C2      72
27  O=C(Nc1ccc([N+](=O)[O-])cc1Cl)c1cc(Cl)ccc1O    6.45

----------
- Tested on: AA1029
- method_description: qHTS profiling for inhibitors of Plasmodium falciparum proliferation (AID 504749); also: nearly all actives have a fitted effect of over 60% in size; also: potency is read from the fitted curve at half-maximal effect
- setup_conditions: P. falciparum in erythrocytes, SYBR Green DNA, 72 h; series mostly up to 28.7 µM
Results filed as inconclusive are left out. Calls of active or inactive are those of the source. Calls follow the shape of the dose curve; as a rule, active = well fitted inhibition curve with a large enough effect; inconclusive = small, poorly fitted or top-dose-only effect; inactive = flat fitted curve, though single readings scatter.
measured_quantity: Potency

> print(dat)
                                    compound            result
 1                Cn1cnc2c1c(=O)[nH]c(=O)n2C          inactive
 2  Cc1cn([C@H]2C[C@H](N=[N+]=[N-])[C@@H](CO)O2)c(=O)[nH]c1=O          inactive
 3                     NC12CC3CC(CC(C3)C1)C2          inactive
 4  CC[N+](CC)(CC)CCOc1cccc(OCC[N+](CC)(CC)CC)c1OCC[N+](CC)(CC)CC          inactive
 5  COc1ccccc1OCCNCC(O)COc1cccc2[nH]c3ccccc3c12 (stereo not given)  8.91 µM (active)
 6         CCOC(=O)Nc1ccc(NCc2ccc(F)cc2)nc1N  11.2 µM (active)
 7  OCCN1CCN(CCCN2c3ccccc3Sc3ccc(C(F)(F)F)cc32)CC1  12.6 µM (active)
 8  CC[C@@]1(O)C(=O)OCc2c1cc1n(c2=O)Cc2cc3c(CN(C)C)c(O)ccc3nc2-1  7.08 µM (active)
 9        CN1CCC(=C2c3ccccc3C=Cc3ccccc32)CC1          inactive
10                Cn1c(=O)c2[nH]cnc2n(C)c1=O          inactive
11  Clc1ccc(C(c2ccccc2Cl)C(Cl)Cl)cc1 (stereo not given)          inactive
12        NS(=O)(=O)c1cc2c(cc1Cl)NCNS2(=O)=O          inactive
13             COc1ccc2[nH]cc(CCNC(C)=O)c2c1          inactive
14  CS(=O)(=O)CCNCc1ccc(-c2ccc3ncnc(Nc4ccc(OCc5cccc(F)c5)c(Cl)c4)c3c2)o1          inactive
15       N[C@@H](Cc1c[nH]c2ccc(O)cc12)C(=O)O          inactive

----------
- method_description: qHTS assay for cell viability of the p53RE-bla HCT-116 cell line (AID 743292); also: % is scaled to controls: 0 for no effect and ±100 for the full control effect; nearly all actives have a fitted effect of over 55% in size
- setup_conditions: p53RE-bla HCT-116 viability, ATP luminescence, 16 h; series mostly up to 95 µM
Results filed as inconclusive are left out. The source made the active and inactive calls. Calls follow the shape of the dose curve; as a rule, active = well fitted cell-killing curve with a large enough effect; inconclusive = small, poorly fitted or top-dose-only effect, or effect the other way; inactive = flat fitted curve, though single readings scatter.
measured_quantity: outcome

> print(dat)
                                    compound    result
 1  Cc1ccc(-c2cc(C(F)(F)F)nn2-c2ccc(S(N)(=O)=O)cc2)cc1  inactive
 2              CCOC(=O)C(C)(C)Oc1ccc(Cl)cc1  inactive
 3       N[C@@H](Cc1c[nH]c2ccc(O)cc12)C(=O)O  inactive
 4       Nc1ccn([C@H]2CC[C@@H](CO)O2)c(=O)n1  inactive
 5  Cc1cn([C@H]2C=C[C@@H](CO)O2)c(=O)[nH]c1=O  inactive
 6  CC(C)(Oc1ccc(C2CC2(Cl)Cl)cc1)C(=O)O (centres undefined)  inactive
 7  COc1ccc(CCN(C)CCCC(C#N)(c2ccc(OC)c(OC)c2)C(C)C)cc1OC (centres undefined)  inactive
 8        NS(=O)(=O)c1cc2c(cc1Cl)NCNS2(=O)=O  inactive
 9               CN(C)CCOC(c1ccccc1)c1ccccc1  inactive
10                             NCCS(=O)(=O)O  inactive
11           C[C@](N)(Cc1ccc(O)c(O)c1)C(=O)O  inactive
12  CC(COc1ccccc1)N(CCCl)Cc1ccccc1 (centres undefined)  inactive
13  COc1cc2c(c(OC)c1OC)-c1ccc(OC)c(=O)cc1[C@@H](NC(C)=O)CC2  inactive
14                Cn1c(=O)c2c(ncn2C)n(C)c1=O  inactive
15  Cc1cn([C@H]2C[C@H](N=[N+]=[N-])[C@@H](CO)O2)c(=O)[nH]c1=O  inactive
16                   Nc1c2c(nc3ccccc13)CCCC2  inactive
17  CC(C)Cc1ccc(C(C)C(=O)O)cc1 (centres undefined)  inactive
18                Cn1cnc2c1c(=O)[nH]c(=O)n2C  inactive
19                CCC1(c2ccccc2)C(=O)NCNC1=O  inactive

----------
- Tested on: CP262
- method_description: qHTS profiling for inhibitors of Plasmodium falciparum proliferation (AID 504749); also: nearly all actives have a fitted effect of over 60% in size
- setup_conditions: P. falciparum in erythrocytes, SYBR Green DNA, 72 h; series mostly up to 28.7 µM
- Method: NIH National Institute of Allergy and Infectious Diseases [NIAID] NIH Chemical Genomics Center [NCGC] […] Because mature erythrocytes lack DNA, only Plasmodium-derived DNA is detected. NCGC Assay Protocol Summary: The SYBR Green viability assay was adapted from a method described previously (Plouffe et al., 2008). […] The following morning, fluorescence intensity at 485(14) nm excitation and 535(25) nm emission wavelengths was measured on an EnVision (Perkin Elmer) plate reader. […]
Records with an inconclusive call do not appear. Activity calls are given as the source filed them. Calls come from the whole dose curve; as a rule, active = well fitted inhibition curve with a large enough effect; inconclusive = small, poorly fitted or top-dose-only effect; inactive = flat fitted curve, though single readings scatter.
Labels: Yes for active, No for inactive

> print(dat)
                                    compound  answer.label
 1  CC(C)NCC(O)c1ccc(O)c(O)c1 (stereo unspecified)            No
 2  O=C(c1ccc(OCCN2CCCCC2)cc1)c1c(-c2ccc(O)cc2)sc2cc(O)ccc12            No
 3                Cn1cnc2c1c(=O)[nH]c(=O)n2C            No
 4  CN(CCOc1ccc(NS(C)(=O)=O)cc1)CCc1ccc(NS(C)(=O)=O)cc1            No
 5        CN1CCC(=C2c3ccccc3C=Cc3ccccc32)CC1            No
 6      CN1CCC(=C2c3ccccc3CC(=O)c3sccc32)CC1            No
 7         CCOC(=O)Nc1ccc(NCc2ccc(F)cc2)nc1N           Yes
 8  CC(C)(C)C(=O)Oc1ccc(S(=O)(=O)Nc2ccccc2C(=O)NCC(=O)O)cc1            No
 9               NC(=O)OCC(COC(N)=O)c1ccccc1            No
10  CC[N+](CC)(CC)CCOc1cccc(OCC[N+](CC)(CC)CC)c1OCC[N+](CC)(CC)CC            No
11  COc1ccccc1OCC(O)CN1CCN(CC(=O)Nc2c(C)cccc2C)CC1 (stereo unspecified)            No
